target: UniProtKB P28222
Sequence (P28222 whole entry): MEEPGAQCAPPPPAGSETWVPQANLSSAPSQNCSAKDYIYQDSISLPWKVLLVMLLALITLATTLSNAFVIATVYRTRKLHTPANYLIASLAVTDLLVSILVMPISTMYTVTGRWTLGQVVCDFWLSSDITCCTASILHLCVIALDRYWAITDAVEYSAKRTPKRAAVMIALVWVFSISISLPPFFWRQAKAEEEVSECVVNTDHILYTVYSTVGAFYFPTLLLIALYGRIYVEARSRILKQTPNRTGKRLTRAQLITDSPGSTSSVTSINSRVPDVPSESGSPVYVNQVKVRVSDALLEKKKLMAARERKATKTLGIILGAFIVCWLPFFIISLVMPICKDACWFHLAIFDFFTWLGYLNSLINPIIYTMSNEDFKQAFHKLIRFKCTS
Quantity kind: pKd
Schema: pKd number; meaning minus log10 of the concentration expressed in molar units.

Identify the measured pKd of COc1ccc(NC(=O)c2ccc(-c3ccncc3)c(C)c2)cc1N1CCN(C)CC1 [[^3H]-GR125743] for UniProtKB P28222.
9.06

Source listed as patent US9012457B2.
